measured_target: α2 receptors of rat cerebral cortex (Rattus norvegicus)
Sequence (P22909 1-465): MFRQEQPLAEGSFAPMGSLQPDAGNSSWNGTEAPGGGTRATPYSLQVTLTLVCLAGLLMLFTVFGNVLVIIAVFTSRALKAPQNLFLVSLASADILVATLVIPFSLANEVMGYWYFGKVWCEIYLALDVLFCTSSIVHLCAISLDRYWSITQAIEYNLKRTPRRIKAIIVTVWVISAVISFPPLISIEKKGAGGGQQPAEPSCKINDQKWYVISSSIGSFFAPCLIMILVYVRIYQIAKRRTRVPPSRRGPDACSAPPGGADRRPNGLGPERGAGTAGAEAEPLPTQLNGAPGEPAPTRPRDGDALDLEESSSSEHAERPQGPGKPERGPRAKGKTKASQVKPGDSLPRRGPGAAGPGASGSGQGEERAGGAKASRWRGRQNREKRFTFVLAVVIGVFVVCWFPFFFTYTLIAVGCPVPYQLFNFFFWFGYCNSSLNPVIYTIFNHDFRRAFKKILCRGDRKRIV
Counter-ions that a name gives are not always drawn.
assay_metric: pIC50
Scale: pIC50 equals -log10([C]), with [C] in mol/L.

{"compound": "C1=C(c2ccccc2)CNCC1 [Example 1, hydrochloride]", "numeric_value": 7.59}

Attention now turns to another entry.
Which pIC50 value belongs to CC(C)N1CCC=C(c2ccccc2)C1 [CRL 41 244, reference compound] ?
6.15

Where these numbers come from: patent US5439920A
